Numbers sourced from patent US20230357134A1.

Molecular target: recombinant Val122Ile TTR (Homo sapiens, UniProt P02766, V142I)
Construct: the non-covalently associated protomers, of mass 13,761, each contain 127 residues; His6 (N); TEV cleavage site (N); made in house; host or cells: E. coli BL21 (DE3)
Assay: Mechano-enzymatic fibrillogenesis, TTR aggregation by turbidity at 400 nm
Format: biochemical
Settings: equimolar ligand, Val122Ile TTR 9 μM, trypsin, 96 h; 100 % = protein without ligand; mean (SD)
measurement_type: % Aggregation (Turbidity method)

1. O=C(O)CCc1cc(Cl)c(OCCCOCCOc2c(Cl)cc(Nc3cnncc3C(=O)O)cc2Cl)c(Cl)c1 = 6.60 (2.40) %

For each listed entry, give its % Aggregation (Turbidity method).
1. O=C(O)CCc1ccc(OCCCOCCCOc2ccc(-c3nc4ccc(C(=O)O)cc4o3)cc2Cl)c(Cl)c1
2. O=C(O)CCc1cc(Cl)c(OCCOCCCCOc2c(Cl)cc(Nc3ccccc3C(=O)O)cc2Cl)c(Cl)c1
3. O=C(O)COCCOCCOCCOc1c(Cl)cc(Nc2ccccc2C(=O)O)cc1Cl
4. Cc1n[nH]c(COCCCOCCCOc2c(Cl)cc(CCC(=O)O)cc2Cl)c1CCCOc1cc(C(=O)O)ccc1F
5. O=C(O)CCc1cc(Cl)c(OCCCOCCOc2c(Cl)cc(Nc3cnccc3C(=O)O)cc2Cl)c(Cl)c1
6. O=C(O)CCc1cc(Cl)c(OCC[C@H](O)[C@@H](O)CCOc2c(Cl)cc(Nc3ccccc3C(=O)O)cc2Cl)c(Cl)c1

Solution:
["3.31 (0.68) %", "5.25 (1.68) %", "17.3 (14.8) %", "17.1 (0.66) %", "3.93 (1.73) %", "3.52 (1.14) %"]

Return reported % Aggregation (Turbidity method) values for all items listed beneath this line.
1. O=C(O)CCc1ccc(OCCCOCCCOc2c(Cl)cc(-c3nc4ccc(C(=O)O)cc4o3)cc2Cl)c(Cl)c1
2. O=C(O)CCc1cc(Cl)c(OCC[C@H](O)[C@@H](O)CCOc2c(Cl)cc(Nc3ncccc3C(=O)O)cc2Cl)c(Cl)c1 (stereo in doubt)
3. O=C(O)CCc1cc(Cl)c(OCCCOCCOc2c(Cl)cc(Nc3ccnnc3C(=O)O)cc2Cl)c(Cl)c1
4. O=C(O)CCc1cc(Cl)c(OCCCOCCOc2c(Cl)cc(-c3nc4ccc(C(=O)O)cc4o3)cc2Cl)c(Cl)c1
5. O=C(O)CCc1cc(Cl)c(OCCOCCCOc2c(Cl)cc(-c3nc4ccc(C(=O)O)cc4o3)cc2Cl)c(Cl)c1

Solution:
["3.99 (0.928) %", "5.76 (2.32) %", "3.96 (1.04) %", "9.30 (4.32) %", "7.62 (3.39) %"]

Hi there! I need % Aggregation (Turbidity method) for each item below, if you can.
1. O=C(O)CCc1ccc(OCC[C@@H](O)[C@H](O)CCOc2ccc(Nc3ccccc3C(=O)O)cc2Cl)c(Cl)c1
2. O=C(O)CCOCCCOCCCOCCCOc1c(Cl)cc(Nc2ccccc2C(=O)O)cc1Cl

Solution:
6.43 (2.12) %
6.24 (1.71) %

====

Kindly supply the reported half-life values for the records listed here.
Test: Rat IV pharmacokinetics
Conditions: in vivo, 1 mg/kg, 1 mpk, read-out: Rat IV PK t½ (converted)
Answers are plain numbers, in min.

Illustrative cases are given below, each with its answer.
1) O=C(O)CCc1cc(Cl)c(OCCCOCCOc2c(Cl)cc(Nc3cnccc3C(=O)O)cc2Cl)c(Cl)c1 = 330
2) CCc1oc(-c2cc(Cl)c(OCC[C@@H](O)[C@H](O)CCOc3c(Cl)cc(CCC(=O)O)cc3Cl)c(Cl)c2)nc1C(=O)O = 307
3) O=C(O)CCc1cc(Cl)c(OCCCOCCOc2c(Cl)cc(Nc3ccncc3C(=O)O)cc2Cl)c(Cl)c1 = 320

Exercise: Query: half-life; subject: O=C(O)CCc1cc(Cl)c(OCCCOCCOc2c(Cl)cc(Nc3ccnnc3C(=O)O)cc2Cl)c(Cl)c1
Solution: 418
